assay: Cytotoxicity against human U373MG cells assessed as dye reduction at 1 to 10 uM after 24 hrs by MTT assay; assay type: cell-based, U-373MG ATCC; details: read-out: Activity
Attribute: viability at 24 h, up to 10 µM
Unit % implied. Number only.

Consider the following illustrative entries.
CC1(C)CCC[C@H]2C1=CC[C@H]1C[C@@](C)([C@@H](O)CO)C[C@@H](O)[C@@]12C
90
C=CC(=C)CC[C@H]1[C@]2(C)CCC[C@](C)(CO)[C@H]2[C@H](O)C[C@]1(C)O
90

We next turn to a different molecule, shown below.
Task item: Fill in the blank: the reported viability at 24 h, up to 10 µM of `CC1(C)CCC[C@]2(C)[C@@H]1C[C@H](O)[C@@]13C=C[C@@](CO)(C1)[C@H](O)C[C@@H]23` is ____.
Reply: 90
